Where these numbers come from: patent US11198713B2

Target: full-length beta-catenin (Axin site) (Homo sapiens)
Construct: 15 nM full-length beta-catenin, 20 nM FITC labeled peptide in buffer
Sequence (P35222 1-781): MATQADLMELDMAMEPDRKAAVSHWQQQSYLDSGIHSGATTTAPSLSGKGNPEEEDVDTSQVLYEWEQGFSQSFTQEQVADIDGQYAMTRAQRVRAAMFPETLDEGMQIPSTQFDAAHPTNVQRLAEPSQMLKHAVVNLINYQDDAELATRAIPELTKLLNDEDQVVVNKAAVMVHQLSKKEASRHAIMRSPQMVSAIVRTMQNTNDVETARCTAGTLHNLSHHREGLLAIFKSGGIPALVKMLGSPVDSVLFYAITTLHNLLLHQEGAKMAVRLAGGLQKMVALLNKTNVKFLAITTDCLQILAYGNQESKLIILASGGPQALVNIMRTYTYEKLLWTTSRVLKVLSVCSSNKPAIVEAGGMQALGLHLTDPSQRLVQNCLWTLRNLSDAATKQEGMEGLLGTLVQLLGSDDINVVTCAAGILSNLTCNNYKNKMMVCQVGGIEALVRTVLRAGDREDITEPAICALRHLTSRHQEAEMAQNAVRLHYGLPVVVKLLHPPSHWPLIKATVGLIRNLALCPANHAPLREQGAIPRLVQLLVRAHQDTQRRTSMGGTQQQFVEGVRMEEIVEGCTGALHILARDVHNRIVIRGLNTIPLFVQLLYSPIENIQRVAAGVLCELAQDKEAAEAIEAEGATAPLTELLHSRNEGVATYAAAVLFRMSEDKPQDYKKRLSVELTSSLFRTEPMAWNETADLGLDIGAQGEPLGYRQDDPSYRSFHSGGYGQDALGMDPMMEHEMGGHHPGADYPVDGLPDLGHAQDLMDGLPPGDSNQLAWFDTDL
Experiment: Competition fluorescence polarization assay (Axin site probe)
Format: binding
Conditions: competition fluorescence polarization, Table 2; read-out: in vitro FP EC50
pEC50: −log10 of the molar value.
# key: entry, value: pEC50

// CC[C@H](C)[C@@H]1NC(=O)[C@H](Cc2ccccn2)NC(=O)[C@H](C)NC(=O)[C@H](CC(=O)O)NC(=O)[C@H](CC(C)C)NC(=O)[C@H]([C@@H](C)CC)NC(=O)[C@](C)(NC(=O)[C@H](C)NC(C)=O)CCCCCCC=CCOC(=O)N2CC[C@@](C(=O)N[C@@H](CC3CC3)C(=O)N[C@H](C(=O)N[C@@H](Cc3c[nH]c4ccccc34)C(N)=O)C(C)C)(C2)NC1=O (single isomer, unassigned) [FP0574c Isomer 2, Ac-A-R8-I-L-D-A-2pyr-I-MB-cpa-V-W-NH2] : pEC50 value = < 5.30

// sample CC[C@H](C)[C@@H]1NC(=O)[C@@]2(NC(=O)[C@H](CCC(N)=O)NC(=O)[C@@H]3CCCN3C(C)=O)CCN(C2)C(=O)OCC=CCCC[C@](C)(C(=O)N[C@@H](Cc2c[nH]cn2)C(=O)N[C@H](C(=O)N[C@@H](CCCNC(=N)N)C(=O)N[C@@H](CCCNC(=N)N)C(=O)N[C@H](C(=O)N[C@@H](Cc2c[nH]c3ccccc23)C(=O)N[C@@H](CCCNC(=N)N)C(N)=O)C(C)C)C(C)C)NC(=O)[C@H](CC(=O)O)NC(=O)[C@H](CC(C)C)NC1=O (single isomer, unassigned) [FP0743c, Ac-P-Q-MC-I-L-D-R5-H-V-R-R-V-W-R-NH2] , its pEC50 was 5.30 to 6.30
